assayed_target: Yer184c (UniProt P39961)
Sequence: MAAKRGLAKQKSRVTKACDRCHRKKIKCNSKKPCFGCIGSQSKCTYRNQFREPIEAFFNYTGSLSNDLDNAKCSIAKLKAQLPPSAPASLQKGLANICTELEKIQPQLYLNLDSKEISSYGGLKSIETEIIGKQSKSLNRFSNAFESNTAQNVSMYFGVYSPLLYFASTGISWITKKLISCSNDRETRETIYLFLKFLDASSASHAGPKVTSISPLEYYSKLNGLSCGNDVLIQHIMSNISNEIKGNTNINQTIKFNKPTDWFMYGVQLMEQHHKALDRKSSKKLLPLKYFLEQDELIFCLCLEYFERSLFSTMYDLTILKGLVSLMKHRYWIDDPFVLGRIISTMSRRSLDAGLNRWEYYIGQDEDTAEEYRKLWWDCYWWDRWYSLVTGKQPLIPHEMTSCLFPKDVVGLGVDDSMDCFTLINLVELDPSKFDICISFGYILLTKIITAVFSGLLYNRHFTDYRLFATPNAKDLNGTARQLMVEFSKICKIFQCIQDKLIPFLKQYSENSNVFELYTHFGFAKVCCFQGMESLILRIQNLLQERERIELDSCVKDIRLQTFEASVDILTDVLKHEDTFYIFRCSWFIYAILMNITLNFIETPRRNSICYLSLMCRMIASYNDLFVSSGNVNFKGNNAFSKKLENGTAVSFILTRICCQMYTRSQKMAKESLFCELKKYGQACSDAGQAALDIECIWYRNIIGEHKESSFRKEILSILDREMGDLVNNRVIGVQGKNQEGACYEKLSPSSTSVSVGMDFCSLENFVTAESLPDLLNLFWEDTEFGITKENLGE
assay_procedure: PBM E-score (8-mer binding enrichment) (E-score (-0.5 to 0.5)); higher = stronger / more preferred TF binding
setup_conditions: protein concentration: 100 nM; construct: GST-full length
Over roughly 33,000 sequences, “E-score (-0.5 to 0.5)” has its median near -0.016; the highest 2% begin near 0.3. This excerpt belongs to a sample that is enriched for the highest values.
Grouping rule (PBM E-score): low bracket = under -0.002, middle bracket = from -0.002 up to 0.2, high bracket = 0.2 and over

macromolecule_sequence: GCGGAAGC
category: middle bracket
--
macromolecule_sequence: GGGGAACA
category: low bracket
--
macromolecule_sequence: AGTAGCTC
category: middle bracket
--
macromolecule_sequence: AAGTCTCT
category: low bracket
--
macromolecule_sequence: CATGAGGG
category: low bracket
--
macromolecule_sequence: CCGGAAGC
category: high bracket
--
macromolecule_sequence: ACGGACGA
category: high bracket
--
macromolecule_sequence: AGAAAACC
category: middle bracket
--
macromolecule_sequence: CCGGAAGA
category: high bracket
--
macromolecule_sequence: ATCAGTAA
category: middle bracket
--
macromolecule_sequence: CGGGAACA
category: high bracket

====

assayed_target: Yer184c (UniProt P39961)
Sequence: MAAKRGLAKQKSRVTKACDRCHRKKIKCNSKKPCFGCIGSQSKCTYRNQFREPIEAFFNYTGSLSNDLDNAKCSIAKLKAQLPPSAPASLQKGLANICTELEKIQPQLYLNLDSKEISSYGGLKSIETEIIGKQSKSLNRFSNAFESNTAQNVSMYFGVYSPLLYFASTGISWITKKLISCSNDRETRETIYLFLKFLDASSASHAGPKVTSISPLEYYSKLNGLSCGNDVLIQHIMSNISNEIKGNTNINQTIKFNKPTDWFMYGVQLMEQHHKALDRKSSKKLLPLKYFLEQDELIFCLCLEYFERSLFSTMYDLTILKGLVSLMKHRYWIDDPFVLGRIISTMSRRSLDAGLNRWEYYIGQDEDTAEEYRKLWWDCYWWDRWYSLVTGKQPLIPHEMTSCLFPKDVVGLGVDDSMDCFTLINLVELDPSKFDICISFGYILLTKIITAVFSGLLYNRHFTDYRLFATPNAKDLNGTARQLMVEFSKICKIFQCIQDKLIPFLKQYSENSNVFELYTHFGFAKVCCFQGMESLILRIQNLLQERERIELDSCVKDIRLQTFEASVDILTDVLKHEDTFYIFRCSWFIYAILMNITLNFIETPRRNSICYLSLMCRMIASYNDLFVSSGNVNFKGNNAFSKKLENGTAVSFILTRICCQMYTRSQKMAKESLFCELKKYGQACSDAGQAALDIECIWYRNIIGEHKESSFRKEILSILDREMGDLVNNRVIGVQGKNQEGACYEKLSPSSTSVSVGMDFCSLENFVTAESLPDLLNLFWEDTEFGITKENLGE
assay_procedure: PBM E-score (8-mer binding enrichment) (E-score (-0.5 to 0.5)); higher = stronger / more preferred TF binding
setup_conditions: protein concentration: 100 nM; construct: GST-full length
The full ranking holds about 33,000 sequences; the median of “E-score (-0.5 to 0.5)” is about -0.016, and the highest 2% start at about 0.3. The sample as a whole holds a higher share of the highest values than the screen did.
Respond with Yes for PBM E-score values of -0.02 and above, No for values below.

macromolecule_sequence: CACCTTGA
category: No
--
macromolecule_sequence: ACGCCGGC
category: Yes
--
macromolecule_sequence: CCGCCGGC
category: Yes
--
macromolecule_sequence: CAGATCCG
category: Yes
--
macromolecule_sequence: CCGGTCTC
category: Yes
--
macromolecule_sequence: CGGATCCC
category: Yes
--
macromolecule_sequence: CCGCCGCA
category: Yes
--
macromolecule_sequence: CAGTGGAC
category: No
--
macromolecule_sequence: CGCTATGA
category: No
--
macromolecule_sequence: AGTCCCAT
category: No
--
macromolecule_sequence: CGGGCTAC
category: Yes
